Source: PubChem BioAssay (Tox21)

Assay: qHTS RealTime-Glo MT Cell Viability Assay in HepG2 cells - 24 hour (AID 1224867); further: nearly all actives have a fitted effect of over 50% in size
Settings: RealTime-Glo luminescence; series mostly up to 76.8 µM
Results filed as inconclusive are left out. Calls of active or inactive are those of the source. The call rests on the fitted dose curve; in most records, active means well fitted cell-killing curve with a large enough effect in the repeat runs; inconclusive means weak or mixed curves; inactive means flat fitted curve, though single readings scatter.
Response enum: active, inactive

[[record]]
compound = "Cc1cc(C)c(C2=C(OC(=O)CC(C)(C)C)C3(CCCC3)OC2=O)c(C)c1"
answer_label = "inactive"


// next entry
Which outcome was assigned to `c1ccc2cc3c(cc2c1)-c1cccc2cccc-3c12` in this test?
inactive

====

Target: Acetylcholinesterase (Homo sapiens)
Test: Acetylcholinesterase (AChE) small molecule antagonists: enzyme-based qHTS assay (AID 1347397); further: nearly all actives have a fitted effect of over 55% in size
Settings: AChE enzyme activity inhibition; series mostly up to 115 µM
Text: National Center for Advancing Translational Sciences [NCATS] Division of Preclinical Innovation [DPI] U.S. Environmental Protection Agency [EPA] National Institutes of Environmental Health Sciences [NIEHS] National Toxicology Program [NTP] U.S. Food and Drug Administration [FDA] Acetylcholinesterase (AChE) is the primary cholinesterase in the body that hydrolyzes a key neurotransmitter, acetylcholine. Inhibition of AChE activity can lead to neurotoxicity. […]
Active and inactive are the calls of the source. Calls come from the whole dose curve.
Response enum: TRUE = active, FALSE = inactive

[[record]]
compound = "Oc1ccc(C2(c3ccc(O)cc3)c3ccccc3-c3ccccc32)cc1"
target_desc = "Acetylcholinesterase (Homo sapiens)"
answer_label = "TRUE"

[[record]]
compound = "Oc1cccc(-c2ccccc2)c1"
target_desc = "Acetylcholinesterase (Homo sapiens)"
answer_label = "FALSE"

[[record]]
compound = "Cc1cc(C(C)(C)c2cc(C)c(O)c(C)c2)cc(C)c1O"
target_desc = "Acetylcholinesterase (Homo sapiens)"
answer_label = "FALSE"

[[record]]
compound = "C[C@H]1CC[C@@H]2[C@@H](C)[C@H]3[C@H](C[C@H]4[C@@H]5CC=C6CC(O[C@@H]7O[C@H](CO)[C@H](O)[C@H](O[C@@H]8O[C@H](CO)[C@@H](O)[C@H](O)[C@H]8O)[C@H]7O[C@H]7O[C@@H](C)[C@H](O)[C@@H](O)[C@H]7O)CC[C@]6(C)[C@H]5CC[C@]34C)N2C1 (stereo partly drawn)"
target_desc = "Acetylcholinesterase (Homo sapiens)"
answer_label = "FALSE"

[[record]]
compound = "CC(c1ccc(O)cc1)c1ccc(O)cc1"
target_desc = "Acetylcholinesterase (Homo sapiens)"
answer_label = "FALSE"


// next entry
Which outcome was assigned to `Nc1ccc(Sc2ccc(N)cc2)cc1` in this test?
FALSE
